# pIC50 values compiled below
MEASUREMENT_TARGET: UniProtKB P50579
pIC50: −log10 of the molar value.

The examples below pair each entry with its known result.
Inquiry: Sample `O=C(NCc1ccc2c(c1)OCO2)[C@@]1(O)CCN(c2ccccc2)C1=O` — what was its pIC50?
Reply text: 5.00 to 6.00

Inquiry: Consider next the compound O=C(NCc1cc(F)cc(Cl)c1)C1(O)CCN(c2ccc3c(cnn3C3CCCCO3)c2)C1=O (stereo not drawn) in the same way.
Reply text: 6.00 to 8.00

Inquiry: Consider next the compound `O=C(NCc1cccc(Cl)c1F)[C@@]1(O)CCN(c2ccc(F)c(Cl)c2)C1=O` in the same way.
Reply text: 6.00 to 8.00

Inquiry: Consider next the compound `O=C(NCc1cc(C(F)(F)F)cc(C(F)(F)F)c1)[C@@]1(O)CCN(c2ccc(F)cc2)C1=O` in the same way.
Reply text: < 5.00

Inquiry: Consider next the compound `O=C(NCc1c(F)ccc(Cl)c1F)[C@@]1(O)CCN(c2ccccc2)C1=O` in the same way.
Reply text: 6.00 to 8.00

Inquiry: Consider next the compound `CC(C)CNC(=O)[C@@]1(O)CCN(c2ccccc2)C1=O` in the same way.
Reply text: 5.00 to 6.00

Inquiry: Consider next the compound `CCCOCCNC(=O)[C@@]1(O)CCN(c2ccccc2)C1=O` in the same way.
Reply text: 5.00 to 6.00

Inquiry: Consider next the compound `O=C(NCc1nc2ccccc2s1)[C@@]1(O)CCN(c2ccccc2)C1=O` in the same way.
Reply text: < 5.00

Others:
Inquiry: Sample `O=C(NCCc1cccs1)[C@]1(O)CCN(c2ccc(Br)cc2)C1=O` — what was its pIC50?
Reply text: 5.00 to 6.00

###

These records show IC50 for MetAP-2 (Homo sapiens, UniProt P50579).

The examples below pair each entry with its known result.
Inquiry: Sample O=C(NCc1cccc(Br)c1)[C@@]1(O)CCN(c2ccc3ccccc3c2)C1=O [A54] — what was its IC50?
Reply text: 10 to 1000 nM

Inquiry: Consider next the compound CC(C)(C)c1cnc(CCNC(=O)[C@@]2(O)CCN(c3ccccc3)C2=O)o1 [A2] in the same way.
Reply text: > 10000 nM

Inquiry: Consider next the compound CS(=O)(=O)N1CCc2cc(N3CCC(O)(C(=O)NCc4cc(F)cc(Cl)c4)C3=O)ccc21 (stereo not drawn) [A253] in the same way.
Reply text: 10 to 1000 nM

Inquiry: Consider next the compound O=C(NCCc1cccs1)[C@@]1(O)CCN(c2ccc(F)cc2)C1=O [A32] in the same way.
Reply text: 10 to 1000 nM

Inquiry: Consider next the compound CCc1nnc(CCNC(=O)[C@@]2(O)CCN(c3ccccc3)C2=O)s1 [A35] in the same way.
Reply text: > 10000 nM

Inquiry: Consider next the compound O=C(NCc1cccc(Br)c1)[C@]1(O)CCN(c2cccc3ccccc23)C1=O [A53] in the same way.
Reply text: > 10000 nM

Others:
Inquiry: Sample CNC(=O)Cn1ccc2cc(N3CC[C@](O)(C(=O)NCc4cc(F)cc(Cl)c4)C3=O)ccc21 [A287] — what was its IC50?
Reply text: 10 to 1000 nM

Inquiry: Consider next the compound CS(=O)(=O)c1ccc(N2CC[C@](O)(C(=O)NCc3cc(F)cc(Cl)c3)C2=O)cc1 [A260] in the same way.
Reply text: 10 to 1000 nM

Inquiry: Consider next the compound O=C(NCc1cccc(Cl)c1F)[C@@]1(O)CCN(c2ccccc2)C1=O [A20] in the same way.
Reply text: 10 to 1000 nM

Inquiry: Consider next the compound O=C(NCCc1nccs1)[C@@]1(O)CCN(c2ccccc2)C1=O [A17] in the same way.
Reply text: 10 to 1000 nM

Inquiry: Consider next the compound CC(C)C(C)NC(=O)[C@@]1(O)CCN(c2ccccc2)C1=O (stereo partly drawn) [A326] in the same way.
Reply text: 1000 to 10000 nM

###

MEASUREMENT_TARGET: MetAP-2 (Homo sapiens)
TEST_NAME: MetAP-2 activity measurement (coupled enzymatic reactions, substrate Met-Arg-Ser)
Assay type: biochemical
CONDITION: Inhibition of MetAP-2; read-out: IC50 enzyme
MEASURED_ENDPOINT: IC50

The examples below pair each entry with its known result.
Inquiry: Sample `O=C(NCCc1nnc(C(F)(F)F)o1)[C@@]1(O)CCN(c2ccccc2)C1=O` — what was its IC50?
Reply text: > 10000 nM

Inquiry: Consider next the molecule `CC1CCN(C(=O)[C@@]2(O)CCN(c3ccccc3)C2=O)CC1` in the same way.
Reply text: 1000 to 10000 nM

Inquiry: Consider next the molecule `O=C(NCc1cccc(Br)c1)[C@@]1(O)CCN(c2ccc(F)cc2)C1=O` in the same way.
Reply text: 10 to 1000 nM

Inquiry: Consider next the molecule `O=C(NCc1cccc(C(F)(F)F)c1)[C@@]1(O)CCN(c2ccccc2)C1=O` in the same way.
Reply text: 10 to 1000 nM

Inquiry: Consider next the molecule `O=C(NCc1cccc(Br)c1)[C@@]1(O)CCN(c2ccc(F)cc2F)C1=O` in the same way.
Reply text: 10 to 1000 nM

Inquiry: Consider next the molecule `COCCN1CC[C@](O)(C(=O)NCc2cc(F)cc(F)c2)C1=O` in the same way.
Reply text: 1000 to 10000 nM

Inquiry: Consider next the molecule `O=C(NCc1cccc(Br)c1)[C@]1(O)CCN(c2ccc3ccccc3c2)C1=O` in the same way.
Reply text: > 10000 nM

Inquiry: Consider next the molecule `CCNC(=O)N1CCc2cc(N3CC[C@](O)(C(=O)NCc4cc(F)cc(Cl)c4)C3=O)ccc21` in the same way.
Reply text: 10 to 1000 nM

Inquiry: Consider next the molecule `O=C(NCc1ccc(F)c(Br)c1)[C@@]1(O)CCN(c2ccccc2)C1=O` in the same way.
Reply text: 10 to 1000 nM

Inquiry: Consider next the molecule `O=C(NCc1ccccc1C(F)(F)F)[C@@]1(O)CCN(c2ccccc2)C1=O` in the same way.
Reply text: 10 to 1000 nM

Others:
Inquiry: Sample `O=C(NCCc1cccs1)[C@@]1(O)CCN(c2ccc(Br)cc2)C1=O` — what was its IC50?
Reply text: 10 to 1000 nM

Inquiry: Consider next the molecule `Cc1nccn1-c1cccc(CNC(=O)[C@@]2(O)CCN(c3ccccc3)C2=O)c1` in the same way.
Reply text: 1000 to 10000 nM

Inquiry: Consider next the molecule `O=C(NCc1cc(F)cc(Cl)c1)[C@@]1(O)CCN(C2CCCCC2)C1=O` in the same way.
Reply text: 10 to 1000 nM

Inquiry: Consider next the molecule `CCCCNC(=O)[C@@]1(O)CCN(c2ccccc2)C1=O` in the same way.
Reply text: 10 to 1000 nM

###

These records show pIC50 for MetAP-2 (Homo sapiens).
pIC50: −log10 of the molar value.

The examples below pair each entry with its known result.
Inquiry: Sample `Cc1nnc(-c2ccc(N3CC[C@](O)(C(=O)NCc4cc(F)cc(Cl)c4)C3=O)cc2)o1` — what was its pIC50?
Reply text: 6.00 to 8.00

Inquiry: Consider next the molecule `O=C(NCCc1cccs1)[C@]1(O)CCN(c2ccc(F)cc2)C1=O` in the same way.
Reply text: 5.00 to 6.00

Inquiry: Consider next the molecule `O=C(NCCn1cccn1)[C@@]1(O)CCN(c2ccccc2)C1=O` in the same way.
Reply text: 5.00 to 6.00

Others:
Inquiry: Sample `O=C(NCc1cc(F)cc(C(F)(F)F)c1)[C@@]1(O)CCN(c2ccccc2)C1=O` — what was its pIC50?
Reply text: 6.00 to 8.00

###

MEASUREMENT_TARGET: MetAP-2 (Homo sapiens, UniProt P50579)
Sequence (P50579 whole entry, species assumed): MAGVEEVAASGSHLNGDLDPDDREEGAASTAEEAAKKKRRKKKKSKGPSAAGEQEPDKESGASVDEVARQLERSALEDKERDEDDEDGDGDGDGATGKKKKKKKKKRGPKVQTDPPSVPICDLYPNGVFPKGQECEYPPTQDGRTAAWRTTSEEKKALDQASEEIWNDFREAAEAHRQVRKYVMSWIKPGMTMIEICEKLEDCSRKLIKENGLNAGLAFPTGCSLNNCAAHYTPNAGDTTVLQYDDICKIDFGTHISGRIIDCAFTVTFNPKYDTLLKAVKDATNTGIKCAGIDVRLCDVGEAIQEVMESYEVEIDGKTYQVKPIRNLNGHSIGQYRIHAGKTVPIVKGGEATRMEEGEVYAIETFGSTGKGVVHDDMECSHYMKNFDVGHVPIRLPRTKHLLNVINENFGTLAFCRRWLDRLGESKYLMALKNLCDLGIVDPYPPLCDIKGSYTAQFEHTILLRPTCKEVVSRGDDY
# IC50 values compiled below

Inquiry: Sample O=CN1CCc2cc(N3CC[C@](O)(C(=O)NCc4cc(F)cc(Cl)c4)C3=O)ccc21 [A282] — what was its IC50?
Reply text: 10 to 1000 nM

Inquiry: Consider next the molecule O=C(NCc1ccccn1)[C@@]1(O)CCN(c2ccccc2)C1=O [A26] in the same way.
Reply text: > 10000 nM

Inquiry: Consider next the molecule O=C(NCc1cccc(Br)c1)[C@@]1(O)CCN(c2ccc(F)c(Cl)c2)C1=O [A50] in the same way.
Reply text: 10 to 1000 nM

Inquiry: Consider next the molecule O=C(NCCc1cccs1)[C@@]1(O)CCN(c2ccc(F)cc2F)C1=O [A31] in the same way.
Reply text: 10 to 1000 nM

Inquiry: Consider next the molecule O=C(NCc1ccco1)C1(O)CCN(c2ccccc2)C1=O (stereo not drawn) [A64] in the same way.
Reply text: 1000 to 10000 nM

Others:
Inquiry: Sample O=C(N1CCOCC1)[C@@]1(O)CCN(c2ccccc2)C1=O [A300] — what was its IC50?
Reply text: > 10000 nM

From: patent US8895535B2
